assay: Portal vein versus systemic pharmacokinetics in hepatic portal vein cannulated rats; type: in vivo, rat; conditions: rat, systemic plasma (retro-orbital sinus); Peripheral bleed (retro-orbital sinus), portal vein cannulated male CD (SD) rats, 10 mg/kg oral; read-out: AUC (0-7 h)
readout: AUC(0-t)
Kindly write the number and append the unit.

Challenge: What value of AUC(0-t) has been recorded for this entry: CCc1cnccc1-c1cccc([C@H](C)N(CCCC(=O)NCCS(=O)(=O)NCC(=O)O)S(=O)(=O)c2ccccc2C(F)(F)F)c1 [Compound 20BG]
Response given: 3.1 ng·h/mL

====

Measured EC50 by item
biological target: human TGR5 receptor (Homo sapiens); test: Human TGR5 cAMP production assay; details: human TGR5, luminescent cAMP assay; coded A-D; read-out: Human TGR5 Lum. cAMP Activity (EC50)
Sequence (Q8TDU6 whole entry): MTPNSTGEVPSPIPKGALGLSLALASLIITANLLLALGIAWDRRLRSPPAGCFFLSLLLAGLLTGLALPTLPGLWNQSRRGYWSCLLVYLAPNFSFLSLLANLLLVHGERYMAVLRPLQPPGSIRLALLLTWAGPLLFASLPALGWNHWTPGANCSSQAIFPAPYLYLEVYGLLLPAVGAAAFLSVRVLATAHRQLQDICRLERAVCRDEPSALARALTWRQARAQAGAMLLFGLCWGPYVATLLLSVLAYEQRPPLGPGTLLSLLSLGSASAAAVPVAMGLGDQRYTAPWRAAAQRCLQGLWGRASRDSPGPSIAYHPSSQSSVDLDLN

The cases that follow already have their EC50 on record.
Cc1cnccc1-c1cccc([C@H](C)N(CCCCNc2c(NCCS(=O)(=O)O)c(=O)c2=O)S(=O)(=O)c2ccccc2C(F)(F)F)c1: < 100 nM
CCc1cnccc1-c1cccc(C2CN(CC(=O)O)CCN2S(=O)(=O)c2cccc(Cl)c2C)c1 (centres unmarked) [Compound 51]: 100 to 999 nM
Cc1cnccc1-c1cccc([C@H](C)N(CCCCC(=O)NCCOCCNC(=O)CS(=O)(=O)O)S(=O)(=O)c2cccc(Cl)c2C)c1 [Compound 31]: < 100 nM
CCc1cnccc1-c1cccc([C@H](C)N(CCCC(=O)NCCS(=O)(=O)NCC(=O)O)S(=O)(=O)c2ccccc2C)c1 [Compound 20BU]: < 100 nM
C[C@H](NS(=O)(=O)c1cccc(Br)c1)c1cccc(-c2ccncc2Cl)c1 [Compound 2BR]: 100 to 999 nM
CCc1cnccc1-c1cccc([C@H](CCCC#N)NS(=O)(=O)c2ccccc2C(F)(F)F)c1 [Compound 6AC]: < 100 nM
Cc1cnccc1-c1cccc(C(C)N(CCCNc2c(NCS(=O)(=O)O)c(=O)c2=O)S(=O)(=O)c2cccc(Cl)c2C)c1 (centres unmarked) [Compound 32AA]: < 100 nM
CCc1cnccc1-c1cccc([C@H](C)N(CCCC(=O)NCS(=O)(=O)O)S(=O)(=O)c2ccccc2C(F)(F)F)c1 [Compound 20BE]: < 100 nM

Challenge: What value of EC50 has been recorded for this entry: Cc1cnccc1-c1cccc([C@@H](C)N(CCCC(=O)O)S(=O)(=O)c2cccc(Cl)c2C)c1 [Compound 16AA]
Response given: 100 to 999 nM
